biological target: RFC WB-EQ (Walker B Glu to Gln quadruple mutant) (Saccharomyces cerevisiae, UniProt P38630;P40348;P38629;P40339;P38251 284-861;1-353;1-340;1-323;1-354, E425Q;E141Q;E118Q;E115Q); assay: fluorescence anisotropy; 0.5 mM ATPgS; no PCNA; 20 nM p/t DNA-RhX, 0.5 mM ATPgS, varied RFC, with or without 2 uM PCNA; buffer, salt, pH and temperature not in the material (Section 3.1 text missing); settings: protein: recombinant; tags: Rfc1 N-terminal 6xHis and kinase recognition motif replacing residues 1-283; copies: 1;1;1;1;1; label: X-rhodamine (RhX) on 5' end of template; primer-template: 26 bp duplex with 34 nt 5' template overhang
pKd: −log10 of the molar value.

[
  {
    "binder": "p/t DNA-RhX (26/60-mer primed template) (dsDNA, 5' C6 amino linker on the 60-mer template) DNA 1: TTCAGGTCAGAAGGGTTCTATCTCTGTTGGCCAGAATGTCCCTTTTATTACTGGTCGTGT DNA 2: ACACGACCAGTAATAAAAGGGACATT",
    "pKd": 6.16
  }
]
